- Tested on: RNAi-treated eri-1 (mg366) nematodes
- ASSAY REMARKS: RNAi screening of olfactory receptor genes: chemotaxis assay of RNAi-treated nematodes to odorants
- Type: in vivo, Caenorhabditis elegans
- SETUP CONDITIONS: srh-22 RNAi-treated nematodes; low concentration of attractant
Item-by-item account of chemotaxis index

Some solved cases for reference:
SMILES INPUT	chemotaxis index
Cc1nc(C)c(C)s1	0.75
CCC(C)=O	0.19
CC(C)CCO	0.58
O=Cc1ccccc1	0.28

Hi! What's the reported chemotaxis index for "CCC(=O)C(C)=O" on RNAi-treated eri-1 (mg366) nematodes?
0.42

Hi! What's the reported chemotaxis index for "c1cnccn1" on RNAi-treated eri-1 (mg366) nematodes?
0.82
